Items are presented alongside their recorded IC50.
- Experimental system: mouse CXCR4 (mCXCR4) (Mus musculus (Mouse))
- Sequence (P70658 whole entry): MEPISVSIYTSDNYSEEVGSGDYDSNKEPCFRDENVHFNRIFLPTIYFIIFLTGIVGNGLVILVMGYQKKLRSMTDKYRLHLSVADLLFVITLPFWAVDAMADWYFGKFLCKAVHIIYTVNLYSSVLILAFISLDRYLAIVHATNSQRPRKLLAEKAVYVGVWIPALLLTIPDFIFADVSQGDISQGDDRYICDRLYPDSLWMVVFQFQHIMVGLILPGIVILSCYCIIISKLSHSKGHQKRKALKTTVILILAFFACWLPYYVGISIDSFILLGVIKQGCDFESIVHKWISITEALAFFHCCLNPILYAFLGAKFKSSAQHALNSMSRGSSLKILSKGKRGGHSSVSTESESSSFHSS
- Protocol notes: Competition binding on Eμ-Myc1080 mouse B-cell lymphoma cells with [125I]R1 as radioligand
- Test settings: 200.000 cells/sample, [125I]R1 radioligand, mean ± SD
Please reply with the bare figure in nM and do not write the unit itself.

1) C[C@@H]1C(=O)N[C@@H](CCCNC(=N)N)C(=O)N[C@@H](Cc2ccc3ccccc3c2)C(=O)NCC(=O)N[C@H](Cc2ccc(O)cc2)C(=O)N1CCCCCCNC(=N)NCCCCCCNC(=O)CN1CCN(CC(=O)O)CCN(CC(=O)O)CCN(CC(=O)O)CC1 (natLu complex, metal not drawn) [P5d] ... 17

The compound listed as C[C@@H]1C(=O)N[C@@H](CCCNC(=N)N)C(=O)N[C@@H](Cc2ccc3ccccc3c2)C(=O)NCC(=O)N[C@H](Cc2ccc(O)cc2)C(=O)N1CCCCCCNC(=N)NCCCCCCNC(=O)CN1CCN(CC(=O)O)CCN(CC(=O)O)CCN(CC(=O)O)CC1 (natGa complex, metal not drawn) [P5c] shows IC50 equal to 12.7

The compound listed as C[C@@H]1C(=O)N[C@@H](CCCNC(=N)N)C(=O)N[C@@H](Cc2ccc3ccccc3c2)C(=O)NCC(=O)N[C@H](Cc2ccc(O)cc2)C(=O)N1CCCCCCNC(=N)NCCCCCCNC(=O)CCOCCOCCOCCOCCNC(=O)CCCCC[N+]1=C(/C=C/C=C/C=C2/N(C)c3ccc(S(=O)(=O)O)cc3C2(C)C)C(C)(C)c2cc(S(=O)(=O)[O-])ccc21 [P5g, Sulfo2-Cy5-PEG4-Hex-CPCR4.3] shows IC50 equal to 63
